- MEASUREMENT TARGET: opiated receptor K (Cavia porcellus, UniProt P41144)
- Construct: Membrane residue prepared from the cerebella of guinea-pigs; from tissue; host or cells: guinea-pig cerebellum membranes
- Sequence (P41144 whole entry): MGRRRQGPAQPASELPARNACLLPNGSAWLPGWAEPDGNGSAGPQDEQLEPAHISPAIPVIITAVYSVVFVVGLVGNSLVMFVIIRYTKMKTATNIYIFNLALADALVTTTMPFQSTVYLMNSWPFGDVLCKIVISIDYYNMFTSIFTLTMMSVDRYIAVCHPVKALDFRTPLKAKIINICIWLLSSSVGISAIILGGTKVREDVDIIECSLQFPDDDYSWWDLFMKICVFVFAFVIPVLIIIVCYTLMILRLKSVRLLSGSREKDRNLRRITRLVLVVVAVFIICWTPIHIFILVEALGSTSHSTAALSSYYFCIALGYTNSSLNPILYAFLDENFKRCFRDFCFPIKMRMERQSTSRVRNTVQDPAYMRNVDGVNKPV
- ASSAY REMARKS: Liaison with the opiated receptor K in vitro (displacement of 3H ethylketocyclazocine)
- Format: binding
- MEASUREMENT CONTEXT: read-out: 50% inhibiting concentration (IC50); guinea-pig cerebella membranes; 3H ethylketocyclazocine 1 nM; Tris pH 7.7; 25° C., 40 minutes
Each record here notes measured IC50.
Numeric only. Scale: nM

1) CN(C(=O)COc1ccc(Cl)c(Cl)c1)[C@@H]1c2ccccc2C[C@H]1N1CCCC1 (relative stereo) [Example 14] :: 3.8

We now examine a further molecule.
Please report the recorded IC50 for CC(C(=O)N(C)[C@@H]1c2ccccc2C[C@H]1N1CCCC1)c1ccc(Cl)c(Cl)c1 (mixture of isomers) [Example 22] .
7.1

###

- MEASUREMENT TARGET: opiated receptor K (Cavia porcellus, UniProt P41144)
- Construct: Membrane residue prepared from the cerebella of guinea-pigs; from tissue; host or cells: guinea-pig cerebellum membranes
- ASSAY REMARKS: Liaison with the opiated receptor K in vitro (displacement of 3H ethylketocyclazocine)
- Format: binding
- MEASUREMENT CONTEXT: 50% inhibiting concentration (IC50), guinea-pig cerebella membranes; 3H ethylketocyclazocine 1 nM; Tris pH 7.7; 25° C., 40 minutes
Below: a set of entries, each annotated with reported pIC50.
Remember, pIC50 is on a log scale: it is -log10 of the molar concentration.

Name the reported pIC50 value associated with the compound CN(C(=O)Cc1ccc([N+](=O)[O-])cc1)[C@@H]1c2ccccc2C[C@H]1N1CCCC1 (relative stereo) [Example 16]
8.30

Cool, now CN(C(=O)Cc1cccc(C(F)(F)F)c1)[C@@H]1c2ccccc2C[C@H]1N1CCCC1 (relative stereo)
8.12

Can you check CN(C)[C@@H]1Cc2ccccc2[C@H]1N(C)C(=O)Cc1ccc(Cl)c(Cl)c1 (relative stereo) next?
8.66

Now consider CN(C(=O)Cc1ccc(Cl)c(Cl)c1)[C@H]1[C@H](N2CCCC2)c2ccccc2C1(C)C (relative stereo) and answer again.
8.25

Same question for CN(C(=O)Cc1ccc([N+](=O)[O-])cc1)[C@@H]1c2ccccc2C[C@H]1N1CCCC1 (relative stereo) [Example 8] please.
8.15

Entry CN(C(=O)Cc1ccc(C(F)(F)F)cc1)[C@@H]1c2ccccc2C[C@H]1N1CCCC1 (relative stereo) please
8.52
